biological target: Metabotropic glutamate receptor 1 (Homo sapiens); assay: Inhibition of Quisqualate-Induced PI Hydrolysis measured in CHO Metabotropic glutamate receptor 1 Expressing Cells; format: functional
Sequence (Q13255 whole entry): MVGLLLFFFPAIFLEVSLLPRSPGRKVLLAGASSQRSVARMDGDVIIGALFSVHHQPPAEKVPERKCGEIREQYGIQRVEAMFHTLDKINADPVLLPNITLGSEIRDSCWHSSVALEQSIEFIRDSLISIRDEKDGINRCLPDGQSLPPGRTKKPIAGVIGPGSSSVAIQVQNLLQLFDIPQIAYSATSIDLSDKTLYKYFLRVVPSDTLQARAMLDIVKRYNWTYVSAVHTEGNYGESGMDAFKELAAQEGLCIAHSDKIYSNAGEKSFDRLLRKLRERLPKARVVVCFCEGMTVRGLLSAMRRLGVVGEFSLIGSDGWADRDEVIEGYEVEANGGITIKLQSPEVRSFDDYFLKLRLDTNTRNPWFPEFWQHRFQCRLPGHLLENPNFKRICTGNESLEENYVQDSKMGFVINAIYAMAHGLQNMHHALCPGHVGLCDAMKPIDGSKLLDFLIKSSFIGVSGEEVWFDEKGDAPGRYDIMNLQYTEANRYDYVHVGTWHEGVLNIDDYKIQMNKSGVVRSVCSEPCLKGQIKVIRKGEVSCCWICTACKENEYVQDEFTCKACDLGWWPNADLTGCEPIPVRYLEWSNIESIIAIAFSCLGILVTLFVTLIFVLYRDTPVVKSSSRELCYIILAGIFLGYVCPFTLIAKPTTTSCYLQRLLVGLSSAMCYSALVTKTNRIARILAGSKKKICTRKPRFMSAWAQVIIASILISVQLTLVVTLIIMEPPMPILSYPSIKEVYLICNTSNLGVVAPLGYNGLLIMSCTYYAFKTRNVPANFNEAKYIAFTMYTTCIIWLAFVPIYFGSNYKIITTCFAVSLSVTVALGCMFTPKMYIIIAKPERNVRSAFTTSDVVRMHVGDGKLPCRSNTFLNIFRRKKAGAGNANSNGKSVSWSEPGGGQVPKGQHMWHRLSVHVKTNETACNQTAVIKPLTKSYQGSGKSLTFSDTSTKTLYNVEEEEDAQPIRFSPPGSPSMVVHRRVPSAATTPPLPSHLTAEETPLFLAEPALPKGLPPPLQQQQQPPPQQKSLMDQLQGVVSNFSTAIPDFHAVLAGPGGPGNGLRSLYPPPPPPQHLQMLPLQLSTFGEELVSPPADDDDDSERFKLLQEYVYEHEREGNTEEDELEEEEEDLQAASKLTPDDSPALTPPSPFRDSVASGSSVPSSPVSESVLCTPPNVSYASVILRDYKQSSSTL
Record form. Attribute: IC50. Fill in for each entry.
Give bare numbers, in µM.

Example molecules with recorded IC50:
molecule	IC50 / µM
CCOC(=O)[C@]12C[C@H]1/C(=N\O)c1ccccc1O2	1.5
CCOC(=O)C12CC1/C(=N\O)c1ccccc1O2 (racemic)	3.4
COC(=O)[C@@H](Cc1ccccc1)NC(=O)C12CC1/C(=N\O)c1ccccc1O2 (mixture of isomers)	1.4
COC(=O)[C@H](Cc1ccccc1)NC(=O)C12CC1/C(=N\O)c1ccccc1O2 (mixture of isomers)	1.2

With those in mind, consider the next molecule.
IC50 for COC(=O)[C@H](Cc1ccccc1)NC(=O)[C@]12C[C@H]1/C(=N\O)c1ccccc1O2 is 0.43

Every entry's value here was drawn from ChEMBL document CHEMBL1133522.
